Please go through the items and note down their IC50.
Test system: HIV
Assay: MT4 assay: antiviral HIV activity (cell protection, cell titer glo readout at 96 hours)
Type: cell-based
Conditions: Human immunodeficiency virus 1, MT4, 96 h, MT4 cells, cell titer glo readout at 96 hours, 10 point dose response; read-out: HIV MT4 Assay IC50
Write the answer as a number in µM, unit excluded.

Given item `Cc1nc2c(cc(C(=O)N3CCCN(c4nccs4)CC3)n2C)c(-c2cc(F)c3c(c2C)CCCO3)c1[C@H](OC(C)(C)C)C(=O)O` , the value recorded as its IC50 is 0.126

Given item Cc1nc2c(cc(C(=O)N3CCC4(CC3)CC(Cc3cccnc3)C(=O)O4)n2C)c(-c2cc(F)c3c(c2C)CCCO3)c1[C@H](OC(C)(C)C)C(=O)O (stereo partly drawn) , the value recorded as its IC50 is 8.05

Given item `COC[C@@H]1CCCN1c1nsc(-c2cc3c(-c4cc(F)c5c(c4C)CCCO5)c([C@H](OC(C)(C)C)C(=O)O)c(C)nc3n2C)n1` , the value recorded as its IC50 is 0.0128
